species: Mus musculus; assay: Percent protection of PAF-induced mortality in mice after 17h; format: functional; design: concentration or dose not given beside the values
Recorded measurements of Protection, one per entry
Provide only the numeric value, understood in %.

Known Protection results, listed for orientation:
- CCCCCCCCCCCCCCCCCCOCC1CC(COC(=O)N(Cc2cccc[n+]2CC)C(C)=O)CO1.[Cl-] (centres undefined): 44
- CCCCCCCCCCCCCCCCCCOC1CC(COC(=O)N(Cc2cccc[n+]2CC)C(C)=O)CO1.[Cl-] (centres undefined): 81
- CCCCCCCCCCCCCCCCOC1CC(COC(=O)N(Cc2cccc[n+]2CC)C(C)=O)CO1.[I-] (centres undefined): 65

Consider the record given below.
Need Protection of CCCCCCCCCCCCCCCCCCOC1C[C@H](COC(=O)N(Cc2cccc[n+]2CC)C(C)=O)CO1.[I-] (some centres undefined) , thanks.
93

----------
species: Mus musculus; test: Percent protection of PAF-induced mortality in mice after 3h; assay type: functional; parameters: concentration or dose not given beside the values
parameter: Protection
State the value with its unit after it.

Known Protection results, listed for orientation:
- C=CCCCCCCOCCCCCCOC1CC(COC(=O)N(Cc2cccc[n+]2CC)C(C)=O)CO1.[I-] (stereo not drawn): 88%
- CCCCCCCCCCCCCCCCCC1CC(COC(=O)N(Cc2cccc[n+]2CC)C(C)=O)CO1.[I-] (stereo not drawn): 16%

Need Protection of CCCCCCCCCCCCCCCCOC1CC(COC(=O)N(Cc2cccc[n+]2CC)C(C)=O)CO1.[I-] (stereo not drawn) , thanks.
88%

----------
organism: Mus musculus; experiment: Percent protection of PAF-induced mortality in mice after 17h; type: functional; set-up: concentration or dose not given beside the values
parameter: Protection
State the value with its unit after it.

Known Protection results, listed for orientation:
• C=CCCCCCCOCCCCCCOC1CC(COC(=O)N(Cc2cccc[n+]2CC)C(C)=O)CO1.[I-] (stereo unspecified) = 20%
• CCCCCCCCCCCCCCCCCCO[C@@H]1C[C@H](COC(=O)N(Cc2cccc[n+]2CC)C(C)=O)CO1.[I-] = 67%
• CC[n+]1ccccc1CN(C(C)=O)C(=O)OCC1COC(OCCCCCCOCCCCCc2ccccc2)C1.[I-] (stereo unspecified) = 38%

Need Protection of CCCCCCCCCCCCCCCCOCC1CC(COC(=O)N(Cc2cccc[n+]2CC)C(C)=O)CO1.[Cl-] (stereo unspecified) , thanks.
44%

// repeat for CCCCCCCCCCCCCCCCCCNC(=O)OCC(COC(=O)N(Cc1cccc[n+]1CC)C(C)=O)OC.[Cl-] (stereo unspecified) and report
95%

// repeat for CCCCCCCCCCOCCCCCCOC1CC(COC(=O)N(Cc2cccc[n+]2CC)C(C)=O)CO1.[I-] (stereo unspecified) and report
40%

----------
species on record: Mus musculus; assay: Percent protection of PAF-induced mortality in mice after 3h; type: functional; set-up: concentration or dose not given beside the values
parameter: Protection (%)
Provide only the numeric value, understood in %.

Known Protection results, listed for orientation:
• CC[n+]1ccccc1CN(C(C)=O)C(=O)OCC1COC(OCCCCCCOCCCc2ccccc2)C1.[I-] (stereo not drawn) = 50
• CCCCCCCCCCCCCCCCCCNC(=O)OCC(COC(=O)N(Cc1cccc[n+]1CC)C(C)=O)OC.[Cl-] (stereo not drawn) = 100
• CC[n+]1ccccc1CN(C(C)=O)C(=O)OCC1COC(OCCCCCCCCCCCCCCCCOC)C1.[I-] (stereo not drawn) = 66
• CCCCCCCCCCCCCCCCOCC1CC(COC(=O)N(Cc2cccc[n+]2CC)C(C)=O)CO1.[Cl-] (stereo not drawn) = 75
• CCCCCCCCCCCCCCCCCCOC1CC(COC(=O)N(Cc2cccc[n+]2CC)C(C)=O)CO1.[Cl-] (stereo not drawn) = 100
• CC[n+]1ccccc1CN(C(C)=O)C(=O)OCC1COC(OCCCCCCOCCCCCc2ccccc2)C1.[I-] (stereo not drawn) = 100
• CCCCCCCCCCCCCCCCCCOCC1CC(COC(=O)N(Cc2cccc[n+]2CC)C(C)=O)CO1.[Cl-] (stereo not drawn) = 100

Consider the record given below.
Need Protection of CCCCCCCCCCOCCCCCCOC1CC(COC(=O)N(Cc2cccc[n+]2CC)C(C)=O)CO1.[I-] (stereo not drawn) , thanks.
100
